measured_target: MetAP-2 (Homo sapiens)
pIC50: −log10 of the molar value.
Reported pIC50 values for a set of molecules

> print(dat)
                                    molecule         measured.target      reported
 1  O=C(NCc1cc(F)cc(Cl)c1)C1(O)CCN(Cc2c[nH]cn2)C1=O (stereo not drawn)  MetAP-2 (Homo sapiens)  5.00 to 6.00
 2  O=C(NC1CC1)c1cccc(N2CC[C@@](O)(C(=O)NCc3cc(F)cc(Cl)c3)C2=O)c1  MetAP-2 (Homo sapiens)  5.00 to 6.00
 3  CC(=O)N[C@H]1CC[C@H](N2CCC(O)(C(=O)NCc3cc(F)cc(Cl)c3)C2=O)CC1 (stereo partly drawn)  MetAP-2 (Homo sapiens)  5.00 to 6.00
 4  CNC(=O)c1cccc(N2CCC(O)(C(=O)NCc3cc(F)cc(Cl)c3)C2=O)c1 (stereo not drawn)  MetAP-2 (Homo sapiens)  6.00 to 8.00
 5  O=C1N(Cc2ccccc2)CCC[C@@]1(O)CNCc1cc(F)cc(Cl)c1  MetAP-2 (Homo sapiens)  5.00 to 6.00
 6  O=C(NCc1cc(F)cc(Cl)c1)C1(O)CCN(C[C@H]2CC[C@@H](C(=O)O)CC2)C1=O (stereo partly drawn)  MetAP-2 (Homo sapiens)  5.00 to 6.00
 7  O=C(NCc1cc(F)cc(Cl)c1)[C@@]1(O)CCN(c2ccc3[nH]c(=O)[nH]c3c2)C1=O  MetAP-2 (Homo sapiens)  6.00 to 8.00
 8  O=C1Nc2ccc(N3CC[C@@](O)(C(=O)NCc4cc(F)cc(Cl)c4)C3=O)cc2C1(F)F  MetAP-2 (Homo sapiens)        < 5.00
 9  NC(=O)c1cc(N2CCC(O)(C(=O)NCc3cc(F)cc(Cl)c3)C2=O)cc(C(F)(F)F)c1 (stereo not drawn)  MetAP-2 (Homo sapiens)  5.00 to 6.00
10  O=C1N(Cc2cccc(F)c2F)CCC[C@]1(O)CNCc1cccc(F)c1  MetAP-2 (Homo sapiens)  6.00 to 8.00

State its pIC50 on MetAP-2 (Homo sapiens): O=C(NCc1cc(F)cc(Cl)c1)C1(O)CCN(Cc2ccccc2)C1 (stereo not drawn)
5.00 to 6.00

Input Cc1cc(CNC(=O)C2(O)CCCN(Cc3ccc(F)c(F)c3)C2=O)no1 (stereo not drawn)
< 5.00

Repeat with CC1(C)O[C@H]2[C@H](CCC[C@@H]2N2CCC(O)(C(=O)NCc3cc(F)cc(Cl)c3)C2=O)O1 (stereo partly drawn)
5.00 to 6.00

Moving on to O=C(NCc1cc(F)cc(Cl)c1)C1(O)CCN(c2ccc3cc[nH]c3c2)C1=O (stereo not drawn)
6.00 to 8.00

Would you mind doing CN(C)C(=O)c1cc2cc(N3CC[C@](O)(C(=O)NCc4cc(F)cc(Cl)c4)C3=O)ccc2[nH]1 as well?
6.00 to 8.00

Likewise for COC(=O)c1cc(N2CCC(O)(C(=O)NCc3cc(F)cc(Cl)c3)C2=O)cnc1C (stereo not drawn) ?
6.00 to 8.00

Similarly, CN(C)CCCNC(=O)[C@@]1(O)CCN(c2ccccc2)C1=O ?
< 5.00

Queued: O=C(NCc1cc(F)cc(Cl)c1)[C@@]1(O)CCN(c2ccc3[nH]c(-c4nc5ccccc5[nH]4)cc3c2)C1=O
6.00 to 8.00

###

measured_target: UniProtKB P50579
Entries and their measured IC50 follow.

Past entries and their recorded results:
> print(dat)
                                   molecule   measured.target          reported
1  O=C(NCc1cccc(F)c1)[C@]1(O)CCCN(CC2CCCCC2)C1=O [A263]  UniProtKB P50579        > 10000 nM
2  O=C(NCc1cc(F)cc(Cl)c1)C1(O)CCCN(c2cc(C(F)(F)F)ccc2F)C1=O (stereo not drawn) [B67]  UniProtKB P50579  1000 to 10000 nM
3  O=C1CCc2cc(N3CC[C@](O)(C(=O)NCc4cc(F)c(F)cc4Cl)C3=O)ccc2N1 [A234]  UniProtKB P50579     10 to 1000 nM

Sample CC(=O)Nc1ccc(N2CCC(O)(C(=O)NCCc3cccc(F)c3)C2=O)cn1 (stereo not drawn) [A174] — what was its IC50?
10 to 1000 nM

What do you have for O=C(NCc1cccc(F)c1)C1(O)CCCN(Cc2ccc(F)c(F)c2)C1=O (stereo not drawn) [A253] ?
1000 to 10000 nM

Repeat for the following molecule: CN(c1cccc(N2CC[C@](O)(C(=O)NCc3cc(F)cc(Cl)c3)C2=O)c1)S(C)(=O)=O [A165]
10 to 1000 nM

Please answer likewise for O=C1CCc2cc(N3CCCC(O)(CNCc4cc(F)cc(Cl)c4)C3=O)ccc2N1 (stereo not drawn) [B68]
1000 to 10000 nM

###

measured_target: MetAP-2 (Homo sapiens)
method_summary: MetAP-2 activity measurement (coupled enzymatic reactions, Met-Arg-Ser substrate, dianisidine detection at 450 nm)
Assay type: biochemical
recorded_conditions: Inhibition of MetAP-2; read-out: IC50 enzyme
The entries below are paired with their reported IC50.

Examples with answers:
> print(dat)
                                   molecule         measured.target  measurement.label      reported
1  Cc1cc2cc(N3CC[C@@](O)(C(=O)NCc4cc(F)cc(Cl)c4)C3=O)cnc2[nH]1 [B61]  MetAP-2 (Homo sapiens)               IC50    1 to 10 µM
2  O=C(NCCCO)c1cccc(N2CC[C@](O)(C(=O)NCc3cc(F)cc(Cl)c3)C2=O)c1 [A94]  MetAP-2 (Homo sapiens)               IC50  0.01 to 1 µM
3  O=C(NCc1cc(F)cc(Cl)c1)[C@]1(O)CCCCN(c2ccccc2)C1=O [A67]  MetAP-2 (Homo sapiens)               IC50       > 10 µM

Okay, now this molecule:
Please provide the recorded IC50 for CS(=O)(=O)N1CC[C@H](N2CCC(O)(C(=O)NCc3cc(F)cc(Cl)c3)C2=O)C1 (stereo partly shown) [A281] , tested on MetAP-2 (Homo sapiens).
1 to 10 µM

###

Property: IC50; scope: individual compounds
measured_target: MetAP-2 (Homo sapiens, UniProt P50579)
Sequence (P50579 whole entry, species assumed): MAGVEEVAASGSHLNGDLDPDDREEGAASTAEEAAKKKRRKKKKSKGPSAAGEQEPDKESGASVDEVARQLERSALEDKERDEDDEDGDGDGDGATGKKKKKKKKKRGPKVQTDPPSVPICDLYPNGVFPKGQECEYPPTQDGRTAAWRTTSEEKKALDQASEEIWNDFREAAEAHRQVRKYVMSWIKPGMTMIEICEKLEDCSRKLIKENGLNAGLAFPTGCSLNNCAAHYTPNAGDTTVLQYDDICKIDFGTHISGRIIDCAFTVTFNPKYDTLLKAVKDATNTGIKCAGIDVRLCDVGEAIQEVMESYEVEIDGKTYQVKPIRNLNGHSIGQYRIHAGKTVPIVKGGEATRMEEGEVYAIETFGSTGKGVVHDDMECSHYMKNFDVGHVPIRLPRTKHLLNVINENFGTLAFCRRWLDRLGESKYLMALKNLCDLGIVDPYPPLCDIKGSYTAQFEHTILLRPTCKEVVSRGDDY

Example entries begin here.
> print(dat)
                                   compound                         measured.target      reported
1  O=C1CCc2cc(N3CCC(O)(C(=O)NCCc4cc(F)cc(Cl)c4)C3=O)ccc2N1 (stereo not shown) [A137]  MetAP-2 (Homo sapiens, UniProt P50579)  0.01 to 1 µM
2  O=C(NCc1cc(F)cc(Cl)c1)C1(O)C(=O)N(c2ccccc2)CC12COC2 (stereo not shown) [A113]  MetAP-2 (Homo sapiens, UniProt P50579)       > 10 µM
3  CCNC(=O)c1cc2cc(N3CC[C@](O)(C(=O)NCc4cc(F)cc(Cl)c4)C3=O)ccc2o1 [A194]  MetAP-2 (Homo sapiens, UniProt P50579)  0.01 to 1 µM

Now for the compound whose IC50 we want.
IC50 lookup needed for O=C1CCc2cc(N3CC[C@](O)(C(=O)NCc4ccc(F)c(F)c4F)C3=O)ccc2N1 [A284] , thanks.
0.01 to 1 µM

###

pIC50: −log10 of the molar value.
MetAP-2 (Homo sapiens, UniProt P50579) measurements of pIC50, listed per entry.

Before answering, review these 2 worked examples.
> print(dat)
                                   compound  measurement.label      reported
1  NC(=O)CCN1CCC(O)(C(=O)NCc2cc(F)cc(Cl)c2)C1=O (stereo not drawn) [A300]              pIC50  5.00 to 6.00
2  O=C(NCc1cccc(F)c1)[C@@]1(O)CCCN(Cc2cccc(F)c2F)C1=O [A254]              pIC50  6.00 to 8.00

Can you share its pIC50? I mean this compound: O=C(NCc1cc(F)cc(Cl)c1)[C@@]1(O)CCN(c2cccc(NS(=O)(=O)C3CC3)c2)C1=O [A80]
6.00 to 8.00

Can you check COc1cc(Cl)c(C)cc1N1CCC(O)(C(=O)NCc2cc(F)cc(Cl)c2)C1=O (stereo not drawn) [B12] next?
5.00 to 6.00

Now the compound O=C(O)c1cc2cc(N3CC[C@@](O)(C(=O)NCc4cc(F)cc(Cl)c4)C3=O)ccc2[nH]1 [B85]
< 5.00

What about O=C(NC1CCC1)c1cccc(N2CC[C@](O)(C(=O)NCc3cc(F)cc(Cl)c3)C2=O)c1 [A163] ?
6.00 to 8.00

Next compound: NS(=O)(=O)c1ccc(N2CC[C@](O)(C(=O)NCc3cc(F)cc(Cl)c3)C2=O)cc1 [B101]
6.00 to 8.00

Also need CC(=O)NS(=O)(=O)c1ccc(N2CCC(O)(C(=O)NCc3cc(F)cc(Cl)c3)C2=O)cc1 (stereo not drawn) [B118] , thanks.
6.00 to 8.00

Next entry: O=C(c1cccc(N2CC[C@@](O)(C(=O)NCc3cc(F)cc(Cl)c3)C2=O)c1)N1CCCC1 [A83]
< 5.00

Repeat with O=C(NCc1cc(F)cc(Cl)c1)[C@@]1(O)CCN(c2cnc3[nH]ncc3c2)C1=O [B75]
6.00 to 8.00

These data points were gathered from patent US10093623B2.
